# Study System: XPO1 (Homo sapiens)
# Construct: the compounds were assayed in a reporter cell line based on the subcellular localization of a XPO1-dependent GFP reporter cargo protein; endogenous in cells
# Test Protocol: XPO1 phenotypic reporter assay in HeLa NLSSV40-AcGFP-NESPKI cells
# Condition Parameters: HeLa GFP reporter cell line; 2 h treatment; mean ± SEM of two independent experiments; read-out: XPO1 inhibition IC50
Readout: IC50 (µM)

O=C(/C=C/c1cccnc1)c1ccc2ccccc2c1 [Compound 24] : 1.27
NC(=O)C(=Cc1cncnc1)C(=O)c1ccc2ccccc2c1 [Compound 5, reference compound] : 9.18
O=C(/C=C/c1ccncc1)c1ccc2ccccc2c1 [Compound 26] : 10.7

I: O=C(/C=C/c1ccccn1)c1ccc2ccccc2c1 [Compound 25]
II: COc1cc(OC)cc(C(=O)/C=C/c2cncnc2)c1 [Compound 10]
III: COc1cc(OCC=C(C)C)cc(C(=O)/C=C/c2cncnc2)c1 [Compound 34]
IV: COCCOc1cc(OC)cc(C(=O)/C=C/c2cncnc2)c1 [Compound 33]
V: COC(=O)/C(=C\c1cncnc1)C(=O)c1cc(OC)cc(OC)c1 [Compound 30]
Rank ascending by IC50. API: response body holds the labels in the requested order. II, III, I, IV, V
(II: 0.55 µM, III: 1.59 µM, I: 7.28 µM, IV: 12.3 µM, V: 87.3 µM)

---

# Test system: Hap-1 cells
# Test Protocol: Cell proliferation assay (IncuCyte confluence), Hap-1
# Assay type: cell-based
# Condition Parameters: Homo sapiens, HAP1; Hap-1 chronic myeloid leukemia; 72 h; mean of two independent experiments ± SEM; read-out: IC50 antiproliferative activity Hap-1
Listing: pIC50 of selected molecules
The read-out pIC50 is expressed as -log10 of concentration in moles per litre.

Previously resolved entries follow.
O=C(/C=C/c1cccnc1)c1ccc2ccccc2c1 : 5.80
COc1cc(OC)cc(C(=O)/C=C/c2cncnc2)c1 : 5.68
NC(=O)/C(=C/c1cncnc1)C(=O)c1ccc2ccccc2c1 : 5.68
O=C(/C=C\n1cnc(-c2cc(C(F)(F)F)cc(C(F)(F)F)c2)n1)NNc1cnccn1 [KPT-330, selinexor, reference compound] : 7.15
COCCOc1cc(OC)cc(C(=O)/C=C/c2cncnc2)c1 : 5.37
O=C(/C=C/c1ccncc1)c1ccc2ccccc2c1 : 5.64

Now for a further molecule.
Requested read-out: pIC50. Entry: O=C(/C=C/c1ccccn1)c1ccc2ccccc2c1 5.47

---

# Test Protocol: GSH reactivity assay (HPLC, DTNB quench)
# Format: physicochemical
# Condition Parameters: 500 µM compound, 5 mM GSH, 37 °C, PBS pH 7.4 with EDTA:DMSO 1:1
# Procedure: In order to determine if these chalcones could react with thiol groups through a hetero-Michael addition reaction, a few selected compounds (9, 10, 13 and 18) were incubated with glutathione (GSH). […] A 500 µM sample of the tested compound was incubated with 5 mM reduced L-glutathione for 24 h at 37 °C with a final volume of 200 μL. […] The new peaks were analysed by LC-MS. […] In general, after 6 h of incubation, no GSH was detected.
Readout: Reaction with GSH (hetero-Michael addition), qualitative

COc1cc(OC)cc(C(=O)/C=C/c2cncnc2)c1 : quickly reacted with GSH
O=C(/C=C/c1cncnc1)c1ccc2ccccc2c1 : quickly reacted with GSH

---

# Tested on: HL-60 cells
# Test Protocol: Cell proliferation assay (IncuCyte confluence), HL-60
# Format: cell-based
# Condition Parameters: Homo sapiens; HL-60 acute myeloid leukemia; 72 h; mean of two independent experiments ± SEM; read-out: IC50 antiproliferative activity HL-60
pIC50: −log10 of the molar value.
Readout: pIC50

A: NC(=O)/C(=C/c1cncnc1)C(=O)c1ccc2ccccc2c1
B: O=C(/C=C/c1ccccn1)c1ccc2ccccc2c1
Lab log: flag the item ( A or B ) with the smaller pIC50 figure. Respond with the label that goes with your answer. A
(A: 5.26, B: 5.74)

---

# Test system: HL-60 cells
# Test Protocol: Cell proliferation assay (IncuCyte confluence), HL-60
# Format: cell-based
# Condition Parameters: Homo sapiens; HL-60 acute myeloid leukemia; 72 h; mean of two independent experiments ± SEM; read-out: IC50 antiproliferative activity HL-60
# Protocol: Cancer cell lines HCT-116, NCI-H460, HL-60, K-562 and Z-138 were acquired from the American Type Culture Collection (ATCC, Manassas, VA, USA). The DND-41 cell line was purchased from the Deutsche Sammlung von Mikroorganismen und Zellkulturen (DSMZ Leibniz-Institut, Brunswick, Germany), and the HAP-1 cell line was ordered from Horizon Discovery (Horizon Discovery Group, Water Beach, UK). All cell lines were cultured as recommended by the suppliers. […]
Readout: IC50 (µM)

O=C(/C=C/c1ccncc1)c1ccc2ccccc2c1 [Compound 26] : 0.9
O=C(/C=C/c1cccnc1)c1ccc2ccccc2c1 [Compound 24] : 3.5
COCCOc1cc(OC)cc(C(=O)/C=C/c2cncnc2)c1 [Compound 33] : 10
COC(=O)/C(=C\c1cncnc1)C(=O)c1cc(OC)cc(OC)c1 [Compound 30] : 23.4
COc1cc(OC)cc(C(=O)/C=C/c2cncnc2)c1 [Compound 10] : 2.2

1: O=C(/C=C\n1cnc(-c2cc(C(F)(F)F)cc(C(F)(F)F)c2)n1)NNc1cnccn1 [KPT-330, selinexor, reference compound]
2: O=C(/C=C/c1cncnc1)c1ccc2ccccc2c1 [Compound 9]
// compare: 1 vs 2 , metric IC50, want the smaller Let me know the label of the one you choose. 1

---

# System: Z-138 cells
# Test Protocol: Cell proliferation assay (IncuCyte confluence), Z-138
# Format: cell-based
# Condition Parameters: Homo sapiens; Z-138 non-Hodgkin lymphoma; 72 h; mean of two independent experiments ± SEM; read-out: IC50 antiproliferative activity Z-138
Reported IC50 values for the following compounds.
Quick note: give the figure in nM, leave out the unit.

NC(=O)/C(=C/c1cncnc1)C(=O)c1ccc2ccccc2c1 : 5100
COCCOc1cc(OC)cc(C(=O)/C=C/c2cncnc2)c1 : 1500

Returns the measured IC50 for the input compound. Input: O=C(/C=C/c1cccnc1)c1ccc2ccccc2c1 1600

---

# Study System: XPO1 (Homo sapiens)
# Construct: the compounds were assayed in a reporter cell line based on the subcellular localization of a XPO1-dependent GFP reporter cargo protein; endogenous in cells; host or cells: HeLa cells stably transfected with the NLSSV40-AcGFP-NESPKI reporter (only the reporter cargo is transfected, not XPO1)
# Test Protocol: XPO1 phenotypic reporter assay in HeLa NLSSV40-AcGFP-NESPKI cells
# Assay type: cell-based
# Condition Parameters: HeLa GFP reporter cell line
Readout: XPO1 inhibition, in words

COc1cc(OCC=C(C)C)cc(C(=O)/C=C/c2cncnc2)c1 : active
COC(=O)/C(=C/c1cncnc1)C(=O)c1ccc2ccccc2c1 : inactive against XPO1
COCCOc1cc(OC)cc(C(=O)/C=C/c2cncnc2)c1 : active
C/C(=C\c1cncnc1)C(=O)c1ccc2ccccc2c1 : inactive against XPO1

---

# Test system: Hap-1 cells
# Test Protocol: Cell proliferation assay (IncuCyte confluence), Hap-1
# Assay type: cell-based
# Condition Parameters: Homo sapiens, HAP1; Hap-1 chronic myeloid leukemia; 72 h; mean of two independent experiments ± SEM; read-out: IC50 antiproliferative activity Hap-1
Readout: pIC50
pIC50 is a log-scale quantity: -log10 of the concentration expressed in molar.

COc1cc(OCC=C(C)C)cc(C(=O)/C=C/c2cncnc2)c1 [Compound 34] : 5.00

Proceed to the following item.
Given the compound O=C(/C=C/c1cncnc1)c1ccc2ccccc2c1 [Compound 9] , what is its reported pIC50? 5.64

---

Readout: melting point

Example entries begin here.
O=C(/C=C/c1ccncc1)c1ccc2ccccc2c1 : 135 to 137 °C
COc1cc(OC)cc(C(=O)/C=C/c2cncnc2)c1 : 184 to 185 °C
COC(=O)/C(=C/c1cncnc1)C(=O)c1ccc2ccccc2c1 : 161 to 163 °C
COC(=O)/C(=C\c1cncnc1)C(=O)c1cc(OC)cc(OC)c1 : 81 to 82 °C

# melting point lookup, item O=C(/C=C/c1cncnc1)c1ccc2ccccc2c1 175 to 177 °C

Field entry: O=C(/C=C/c1cccnc1)c1ccc2ccccc2c1 123 to 125 °C

// repeat for O=C(/C=C/c1ccccn1)c1ccc2ccccc2c1 and report 89 to 90 °C

---

# Study System: XPO1 (Homo sapiens, UniProt O14980)
# Construct: the compounds were assayed in a reporter cell line based on the subcellular localization of a XPO1-dependent GFP reporter cargo protein; endogenous in cells
# Sequence (O14980 whole entry): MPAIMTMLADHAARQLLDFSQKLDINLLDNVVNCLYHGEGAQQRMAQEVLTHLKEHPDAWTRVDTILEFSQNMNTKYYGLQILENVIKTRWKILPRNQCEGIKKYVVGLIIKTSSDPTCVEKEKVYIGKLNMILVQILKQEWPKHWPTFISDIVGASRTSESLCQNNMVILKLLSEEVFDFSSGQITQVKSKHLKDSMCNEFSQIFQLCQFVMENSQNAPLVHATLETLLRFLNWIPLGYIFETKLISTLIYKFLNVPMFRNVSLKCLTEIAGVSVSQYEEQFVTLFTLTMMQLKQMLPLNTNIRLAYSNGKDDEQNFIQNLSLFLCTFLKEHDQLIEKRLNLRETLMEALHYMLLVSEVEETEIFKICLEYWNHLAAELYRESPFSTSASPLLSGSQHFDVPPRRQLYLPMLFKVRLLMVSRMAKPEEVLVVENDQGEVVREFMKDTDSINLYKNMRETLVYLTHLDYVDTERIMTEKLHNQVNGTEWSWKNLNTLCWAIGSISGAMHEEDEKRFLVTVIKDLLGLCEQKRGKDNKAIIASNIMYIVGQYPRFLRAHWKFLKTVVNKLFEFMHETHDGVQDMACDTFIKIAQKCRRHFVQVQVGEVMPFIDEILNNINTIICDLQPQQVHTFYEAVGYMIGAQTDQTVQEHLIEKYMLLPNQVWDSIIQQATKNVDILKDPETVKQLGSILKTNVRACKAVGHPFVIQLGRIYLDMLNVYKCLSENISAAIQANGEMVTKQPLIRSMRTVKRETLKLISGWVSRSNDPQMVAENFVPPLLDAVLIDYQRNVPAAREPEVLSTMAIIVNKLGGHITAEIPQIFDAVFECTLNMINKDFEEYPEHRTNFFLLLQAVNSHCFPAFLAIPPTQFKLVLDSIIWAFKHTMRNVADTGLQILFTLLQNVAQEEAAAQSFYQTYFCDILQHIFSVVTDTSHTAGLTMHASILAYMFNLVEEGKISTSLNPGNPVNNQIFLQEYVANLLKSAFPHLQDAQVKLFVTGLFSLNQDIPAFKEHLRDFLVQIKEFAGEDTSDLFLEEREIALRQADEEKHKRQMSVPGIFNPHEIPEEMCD
# Test Protocol: XPO1 phenotypic reporter assay in HeLa NLSSV40-AcGFP-NESPKI cells
# Condition Parameters: HeLa GFP reporter cell line; 2 h treatment; mean ± SEM of two independent experiments; read-out: XPO1 inhibition IC50
Readout: IC50

The examples below pair each entry with its known result.
NC(=O)/C(=C/c1cncnc1)C(=O)c1ccc2ccccc2c1 : ~10 µM
C/C(=C\c1cncnc1)C(=O)c1ccc2ccccc2c1 : > 100 µM

Attention now shifts to the item below.
What does the record list as IC50 for COC(=O)/C(=C/c1cncnc1)C(=O)c1ccc2ccccc2c1 ? > 100 µM

Cited source: paper PMC8621101
